These data points were gathered from patent US6300353A.

Assay Overview: physchem
Condition Notes: water
Property: solubility (mg/mL)
Lab book: enter the figure in mg/mL, no units written.

Returns the measured solubility for the input compound. Input: CNCC(=O)Oc1c(C)cc(C[n+]2cnn(C[C@](O)(c3cc(F)ccc3F)[C@@H](C)c3nc(-c4ccc(C#N)cc4)cs3)c2)cc1C.[Br-] 22

###

Assay Overview: Conversion of compounds of formula (I') to compounds of formula (II) in human plasma
Assay type: in vitro ADME
Condition Notes: 37° C.
Property: half-life

Returns the measured half-life for the input molecule. Input: CNCC(=O)Oc1c(C)cc(C[n+]2cnn(C[C@](O)(c3cc(F)ccc3F)[C@@H](C)c3nc(-c4ccc(C#N)cc4)cs3)c2)cc1C.[Br-] [Example 1] < 1 min

Returns the measured half-life for the input molecule. Input: CNCC(=O)Oc1c(C)cc(C[n+]2cnn(C[C@](O)(c3cc(F)c(F)cc3F)[C@@H](C)c3nc(-c4ccc(C#N)cc4)cs3)c2)cc1C.Cl.[Br-] [Example 3] < 1 min

###

Assay Overview: Conversion of compounds of formula (I') to compounds of formula (II) in human plasma
Format: in vitro ADME
Condition Notes: 37° C., incubation time 5 min, read-out: Observed (%) Comp. (I')
Consider the following compounds; for each one, report its remaining at 5 min.

Returns the measured remaining at 5 min for the input compound. Input: CNCC(=O)Oc1c(C)cc(C[n+]2cnn(C[C@](O)(c3cc(F)c(F)cc3F)[C@@H](C)c3nc(-c4ccc(C#N)cc4)cs3)c2)cc1C.Cl.[Br-] [Example 3, hydrochloride] < 5%

Returns the measured remaining at 5 min for the input compound. Input: CNCC(=O)Oc1c(C)cc(C[n+]2cnn(C[C@](O)(c3cc(F)ccc3F)[C@@H](C)c3nc(-c4ccc(C#N)cc4)cs3)c2)cc1C.[Br-] < 5%
